Cited source: the supplement of paper PMC7877785

Kindly supply the reported self-splicing fitness (ln) values for the records listed here.
TEST_SUMMARY: self-splicing fitness, log relative to wild type (ln ratio); higher = more splicing; Tetrahymena group I intron in knt gene, E. coli kanamycin selection, DiMSum; sequences stand for … in CUCUCU…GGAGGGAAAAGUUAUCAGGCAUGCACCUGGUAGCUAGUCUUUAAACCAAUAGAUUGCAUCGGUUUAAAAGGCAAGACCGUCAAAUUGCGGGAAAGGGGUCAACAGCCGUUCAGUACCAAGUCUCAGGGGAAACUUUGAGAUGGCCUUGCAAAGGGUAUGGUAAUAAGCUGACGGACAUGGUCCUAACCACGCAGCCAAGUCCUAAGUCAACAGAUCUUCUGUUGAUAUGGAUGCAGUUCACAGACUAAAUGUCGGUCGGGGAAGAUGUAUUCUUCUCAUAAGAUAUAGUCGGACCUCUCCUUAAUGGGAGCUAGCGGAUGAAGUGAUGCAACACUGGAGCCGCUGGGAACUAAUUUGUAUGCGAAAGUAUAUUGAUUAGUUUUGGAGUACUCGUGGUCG;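 also: selection with 25 µg/mL kanamycin versus none on LB agar overnight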
EXPERIMENTAL_SETUP: 30 °C
Number only, please.

In: Please look up its self-splicing fitness (ln): `CCGAAGCAAUAUUACGUUAU`
Out: -3.94

In: Please look up its self-splicing fitness (ln): `UUAUAGCAAUAUUACGGGGU`
Out: -2.93

In: Please look up its self-splicing fitness (ln): `ACGGAGCAAUAUUACGCUUG`
Out: -1.71

In: Please look up its self-splicing fitness (ln): `GAAAAGCAAUAUUACGACGG`
Out: -2.29

In: Please look up its self-splicing fitness (ln): `AACGAGCAAUAUUACGCGAG`
Out: -2.75

In: Please look up its self-splicing fitness (ln): `AAAGAGCAAUAUUACGAACU`
Out: -1.41

In: Please look up its self-splicing fitness (ln): `CUGUAGCAAUAUUACGAGCG`
Out: -0.681

In: Please look up its self-splicing fitness (ln): `AUCAAGCAAUAUUACGAGUU`
Out: -1.57

In: Please look up its self-splicing fitness (ln): `AAUCAGCAAUAUUACGGUGU`
Out: 0.0362

In: Please look up its self-splicing fitness (ln): `GGUAAGCAAUAUUACGUAAA`
Out: -0.961

In: Please look up its self-splicing fitness (ln): `CAACAGCAAUAUUACGCCCU`
Out: -1.96

In: Please look up its self-splicing fitness (ln): `UCCAAGCAAUAUUACGCACU`
Out: -2.28

In: Please look up its self-splicing fitness (ln): `AGGUAGCAAUAUUACGGGCG`
Out: -1.03

In: Please look up its self-splicing fitness (ln): `UUGGAGCAAUAUUACGCGUU`
Out: -2.97

In: Please look up its self-splicing fitness (ln): `GUGUAGCAAUAUUACGGCGG`
Out: -2.81

In: Please look up its self-splicing fitness (ln): `CCUUAGCAAUAUUACGAGCG`
Out: -1.02

In: Please look up its self-splicing fitness (ln): `CCCUAGCAAUAUUACGGUUU`
Out: -3.31

In: Please look up its self-splicing fitness (ln): `GCACAGCAAUAUUACGCGCU`
Out: -2.39

In: Please look up its self-splicing fitness (ln): `GCAUAGCAAUAUUACGUCCC`
Out: -1.38

In: Please look up its self-splicing fitness (ln): `UAAAAGCAAUAUUACGAGAC`
Out: -2.39

In: Please look up its self-splicing fitness (ln): `GAAUAGCAAUAUUACGUUGA`
Out: -2.6

In: Please look up its self-splicing fitness (ln): `ACGGAGCAAUAUUACGAACU`
Out: -0.565

In: Please look up its self-splicing fitness (ln): `UUCAAGCAAUAUUACGGCAG`
Out: -1.05

In: Please look up its self-splicing fitness (ln): `CGUAAGCAAUAUUACGGUCC`
Out: -2.31

In: Please look up its self-splicing fitness (ln): `GUGCAGCAAUAUUACGUAUG`
Out: -1.86

In: Please look up its self-splicing fitness (ln): `UAAUAGCAAUAUUACGUGGG`
Out: -2.91

In: Please look up its self-splicing fitness (ln): `UAAAAGCAAUAUUACGCUGG`
Out: -1.46

In: Please look up its self-splicing fitness (ln): `UAGAAGCAAUAUUACGCCUG`
Out: -0.128

In: Please look up its self-splicing fitness (ln): `AAACAGCAAUAUUACGCACG`
Out: -1.45

In: Please look up its self-splicing fitness (ln): `UAUGAGCAAUAUUACGUGGG`
Out: -3.55

In: Please look up its self-splicing fitness (ln): `AAUCAGCAAUAUUACGCGAU`
Out: -2.8

In: Please look up its self-splicing fitness (ln): `AUUCAGCAAUAUUACGUGUC`
Out: -4.2

In: Please look up its self-splicing fitness (ln): `GCAAAGCAAUAUUACGUUCG`
Out: -1.51

In: Please look up its self-splicing fitness (ln): `GCUAAGCAAUAUUACGUCUG`
Out: -1.84

In: Please look up its self-splicing fitness (ln): `UAUCAGCAAUAUUACGGGGU`
Out: -3.6

In: Please look up its self-splicing fitness (ln): `UGUAAGCAAUAUUACGGGCG`
Out: 0.00753

In: Please look up its self-splicing fitness (ln): `CACGAGCAAUAUUACGUGUU`
Out: -2.98

In: Please look up its self-splicing fitness (ln): `GCCAAGCAAUAUUACGGAGC`
Out: -3.32

In: Please look up its self-splicing fitness (ln): `GUGAAGCAAUAUUACGUCCC`
Out: -1.28

In: Please look up its self-splicing fitness (ln): `UGUAAGCAAUAUUACGAGGU`
Out: -4.29

In: Please look up its self-splicing fitness (ln): `AGAGAGCAAUAUUACGCGUC`
Out: -2.64

In: Please look up its self-splicing fitness (ln): `UAUGAGCAAUAUUACGCCGA`
Out: -2.04

In: Please look up its self-splicing fitness (ln): `AGUAAGCAAUAUUACGCGGU`
Out: -2.66

In: Please look up its self-splicing fitness (ln): `GGCAAGCAAUAUUACGACUU`
Out: -0.555

In: Please look up its self-splicing fitness (ln): `GGGGAGCAAUAUUACGUGAA`
Out: -2.71

In: Please look up its self-splicing fitness (ln): `UAAUAGCAAUAUUACGAGGC`
Out: -3.59

In: Please look up its self-splicing fitness (ln): `GGUAAGCAAUAUUACGGGUC`
Out: -2.39

In: Please look up its self-splicing fitness (ln): `AAGUAGCAAUAUUACGGACA`
Out: -1.7

In: Please look up its self-splicing fitness (ln): `GCGCAGCAAUAUUACGUUUU`
Out: -0.735

In: Please look up its self-splicing fitness (ln): `AGAAAGCAAUAUUACGCUAG`
Out: -3.32

In: Please look up its self-splicing fitness (ln): `CCUAAGCAAUAUUACGAUUG`
Out: -3.51

In: Please look up its self-splicing fitness (ln): `CGUGAGCAAUAUUACGCGAC`
Out: -2.65

In: Please look up its self-splicing fitness (ln): `UAGAAGCAAUAUUACGAAUU`
Out: -2.42

In: Please look up its self-splicing fitness (ln): `GCGAAGCAAUAUUACGAAAU`
Out: -3.46

In: Please look up its self-splicing fitness (ln): `AUUAAGCAAUAUUACGCAGG`
Out: -2.22

In: Please look up its self-splicing fitness (ln): `AAUGAGCAAUAUUACGUUUC`
Out: -4.31

In: Please look up its self-splicing fitness (ln): `CCCCAGCAAUAUUACGUUGC`
Out: -3.41

In: Please look up its self-splicing fitness (ln): `GCCGAGCAAUAUUACGGGUU`
Out: -3.35

In: Please look up its self-splicing fitness (ln): `CGUUAGCAAUAUUACGAAUG`
Out: -1.92

In: Please look up its self-splicing fitness (ln): `CAACAGCAAUAUUACGAUCG`
Out: -0.183

In: Please look up its self-splicing fitness (ln): `AUCUAGCAAUAUUACGUCGC`
Out: -3.06

In: Please look up its self-splicing fitness (ln): `UCCGAGCAAUAUUACGAUAU`
Out: -1.5

In: Please look up its self-splicing fitness (ln): `CCCAAGCAAUAUUACGUACA`
Out: -2.94

In: Please look up its self-splicing fitness (ln): `GGCAAGCAAUAUUACGUUAU`
Out: -0.941

In: Please look up its self-splicing fitness (ln): `UUGAAGCAAUAUUACGGGUG`
Out: -0.54

In: Please look up its self-splicing fitness (ln): `GGGAAGCAAUAUUACGAGCA`
Out: -2.18

In: Please look up its self-splicing fitness (ln): `AUGGAGCAAUAUUACGGUGG`
Out: -4.09
